- SUBJECT_OF_TEST: NADPH oxidase 2 (Homo sapiens)
- TEST_DETAILS: NOX2-dependent H2O2 signal modulators, primary screen, NOX inhibitor project, cell-based, HEK293-NOX2, PMA-stimulated, Amplex Red fluorescence (AID 1159); note: test concentration not given here
- REPORTED_CONDITIONS: 45 min, higher = more signal, called active from +8 up or from −8 down
Would you mind labelling by z-score? At or over -0.1 is Satisfied, under is Not satisfied.

SAMPLE_SMILES | SUBJECT_OF_TEST | CATEGORY_LABEL
COc1ccccc1CN1C(=O)c2ccccc2[C@@]2(Cc3ccccc3N(CC(C)C)C2=O)[C@@H]1c1ccc(CO)cc1 | NADPH oxidase 2 (Homo sapiens) | Satisfied
COC(=O)C(CC#Cc1ccc2c(c1)[C@]1(C(=O)N2)[C@H](C(=O)Nc2nc3ccccc3s2)[C@H]2C(=O)O[C@H](c3ccccc3)[C@H](c3ccccc3)N2[C@@H]1c1ccc(O)cc1)C(=O)OC | NADPH oxidase 2 (Homo sapiens) | Satisfied
COC(=O)c1c(CC[C@@H](CO)NC(=O)NCCn2cc(C3(O)CCCC3)nn2)oc(C(C)=O)c1C(=O)OC | NADPH oxidase 2 (Homo sapiens) | Not satisfied
COc1cc(COC(C)=O)ccc1OC(C)=O | NADPH oxidase 2 (Homo sapiens) | Not satisfied
CCOC(=O)C[C@H]1[C@H](OC(=O)c2ccc(C(=O)c3ccccc3)cc2)[C@@H](NC(=O)c2ccccc2)c2cc(OCCCO)ccc2N1C(=O)Cc1ccc(OC)cc1 | NADPH oxidase 2 (Homo sapiens) | Satisfied

###

Reported composite z-score values for the following molecules.
- SUBJECT_OF_TEST: Albumin (Bos taurus)
- TEST_DETAILS: bovine serum albumin binders on microarray, profiling panel, artefact control for SMM control protein annotation, biochemical, small-molecule microarray, Alexa647 label, 635/667 nm fluorescence (AID 1118);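 note: score merges 667 nm emission intensity and signal-to-noise per printed compound spot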
- REPORTED_CONDITIONS: BSA-A647 binding, fluorescence 635 nm, higher = more signal
ENDPOINT_LABEL: composite z-score

MOLECULE | RESULT
O=C(NCCN1CCOCC1)C1N=C(c2ccc(OCCCO)cc2)N(c2ccccc2)O1 (stereo not drawn) | 0.439
C=C(CCCC)/C(=C/C[C@@H](OC(=O)c1ccncc1)c1ccc(OCCO)cc1)c1cc(C(=O)OC)ccc1OC | 0.445
Cc1ccccc1C(O)C1C=CC2C(=O)N(c3ccccc3)C(=O)C2N1Nc1ccc(C(C)C)cc1 (stereo not drawn) | 0.868
CCCC[C@H]1OB(O)C[C@H]2C1=C(COC)C[C@H]1C(=O)N(C)C(=O)[C@H]12 | -0.126
COCCOC(=O)N1C(=O)[C@@]2(c3cc(C#Cc4ccc(OC)cc4)ccc31)[C@H](c1ccccc1OCCO)N1[C@H](c3ccccc3)[C@H](c3ccccc3)OC(=O)[C@H]1[C@@H]2C(=O)NC[C@H](O)c1ccccc1 | -0.0206
C=CCOC(=O)[C@@H]1[C@H]2C(=O)O[C@H](c3ccccc3)[C@H](c3ccccc3)N2[C@H](c2ccc(OCCOC(=O)[C@H]3C[C@H]4C(=O)N5CCC[C@H]5C(=O)N4[C@H]3c3ccc(O)cc3)cc2)[C@@]12C(=O)Nc1ccc(I)cc12 | -1.18
COCCCNC(=O)[C@]1(CCC(=O)OC(C)(C)C)N=C(c2ccc(OCCCO)cc2)O[C@@H]1c1ccccc1CN=[N+]=[N-] | 0.839
C=CCOC(=O)[C@@H]1[C@H]2C(=O)O[C@H](c3ccccc3)[C@H](c3ccccc3)N2[C@H](c2ccc(OCCOC(=O)[C@@H]3C[C@@H]4C(=O)NCC(=O)N4[C@@H]3c3ccc(O)cc3)cc2)[C@@]12C(=O)Nc1ccc(I)cc12 | 0.471
CO[C@H]1O[C@H](CO)[C@@H](OC(=O)Nc2ccc(C(F)(F)F)cc2)[C@H](OC(=O)Nc2ccc3c(c2)OCO3)[C@@H]1OC(=O)Nc1ccc2c(c1)OCO2 | 0.835
CC(C)[Si]1(C(C)C)O[C@@H](c2ccccc2)c2cc(-c3ccc(-c4ccc(Cl)c(Cl)c4)o3)nc(-c3ccccc3)c21 | 0.473
CCOC(=O)C[C@H]1[C@H](OC(=O)c2ccc(-c3ccccc3)cc2)[C@@H](NC(=O)Cc2ccc(OC)cc2)c2cc(OCCCO)ccc2N1C(=O)c1ccccc1 | 0.167
CN1C(=O)C2C=CC(C(O)c3ccc([N+](=O)[O-])cc3)N(N3CCCCC3)C2C1=O (stereo not drawn) | 0.818
C=C[C@@H](COC(=O)OC(C)(C)C)N(Cc1ccc(OC)cc1)S(=O)(=O)c1ccc(Br)cc1 | -0.0125

###

Reported composite z-score values for the following molecules.
- Tested on: Sonic hedgehog protein (Shh)
- TEST_DETAILS: small-molecule binders of Shh protein, primary screen, biochemical, small-molecule microarray, 635/667 nm fluorescence (AID 1151);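 note: Shh protein binding to compounds spotted on small-molecule microarray slides; score combines spot fluorescence intensity with signal-to-noise across triplicate slides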
- REPORTED_CONDITIONS: small-molecule microarray binding, 635 nm fluorescence; higher = more signal
ENDPOINT_LABEL: composite z-score

MOLECULE | RESULT
COC(=O)[C@H](Cc1ccccc1)N[C@@H](/C=C/C1CC1)[C@H](O)Cc1ccccc1 | -0.21
CC(C)C[C@@H]1NC(=O)[C@@H]2C[C@H](C(=O)NCc3ccc(F)cc3)[C@H](c3cccc(OCCO)c3)N2C1=O | 1.75
CCOC(=O)C[C@H]1[C@H](OC(=O)c2ccc(C(=O)c3ccccc3)cc2)[C@@H](NC(=O)c2ccc3ccccc3n2)c2cc(OCCCO)ccc2N1C(=O)c1ccccc1 | 1.2
CC1CC/C=C\[C@H]2OC34C=CCN(C(C)(C)C)C(=O)[C@H]3N(C(C)CO)C(=O)[C@@H]4C2C(=O)O1 (some centres undefined) | 0.622

###

- TEST_DETAILS: CREB reporter modulators without forskolin, primary screen, cell-based, PC12, CRE-LacZ reporter, unstimulated (AID 1145)
- REPORTED_CONDITIONS: no forskolin, luminescence, 4.5 h, higher = more signal, called active from +8 up or from −8 down
param class (str): category from z-score; see ranges range 1 = under 0.2, range 2 = from 0.2 up to 0.7, range 3 = 0.7 and over

COMPOUND | CATEGORY_LABEL
COCCCNC(=O)[C@@]1(C)c2ccccc2C(=O)N(C(C)C)[C@H]1c1ccc(CO)cc1 | range 2
C=CC1(C(=O)OC)CC=C(C(=O)OC)CC1 (stereo not given) | range 2
COC(=O)[C@@]1(Cc2ccc(F)cc2)[C@H]2c3cc(C(=O)N(C)C)n(Cc4cc(F)c(F)c(F)c4)c3C[C@H]2CN1C(=O)c1ccccc1 | range 3
CC(C)C[C@@H]1NC(=O)[C@H](C(C)C)NC(=O)[C@@]23C(=O)N[C@@H](Cc4ccccc4)C2[C@H](C)[C@@]2(C)O[C@H]2C3/C=C/CC/C=C/CNC1=O (stereo not given in full) | range 1
COC(=O)[C@@]1(Cc2ccccc2)[C@H]2c3cc(C(=O)N(C)C)n(Cc4ccsc4Br)c3C[C@H]2CN1C(=O)c1ccccc1 | range 2
N#Cc1ccc(NN2C(C(O)C(c3ccccc3)c3ccccc3)C=CC3C(=O)N(c4ccccc4)C(=O)C32)cc1 (stereo not given) | range 2
COCCOC(=O)N1C(=O)[C@@]2(c3cc(C#CC4(O)CCCCCC4)ccc31)[C@H](c1ccccc1OCCO)N1[C@H](c3ccccc3)[C@H](c3ccccc3)OC(=O)[C@H]1[C@@H]2C(=O)N1CCN(c2ncccn2)CC1 | range 1
C=C(CCCC)/C(=C/C[C@@H](OC(C)=O)c1ccc(OCCO)cc1)c1cnc2ccccc2c1 | range 3
CCCc1cc2c(n1Cc1cc(F)cc(F)c1)C(C)C1CN(C(=O)c3ccccc3)C(C)(C(=O)OC)C21 (stereo not given) | range 2
COc1ccc(/C=C/C=O)cc1 | range 2
COc1ccc([C@H]2OC[C@@H]3C[C@@H](Cc4ccccc4)C(=O)N32)cc1 | range 3
C=C(C)[C@@H]1CC=C(C(O)C2C=CC3C(=O)N(C)C(=O)C3N2Nc2ccccc2)CC1 (stereo not given in full) | range 2
C=CC[C@@]1(C(=O)NCCN2CCOCC2)N=C(c2ccc(OCCCO)cc2)O[C@@H]1c1ccccc1N=[N+]=[N-] | range 1
Cc1ccc(S[C@]2(C(=O)NCCCN(C)C)CC(=O)N(Cc3cc(C(F)(F)F)cc(C(F)(F)F)c3)[C@@H]2c2ccc(CO)cc2)cc1 | range 1
COc1ccc(-c2cc3c(c(-c4ccc(Oc5ccccc5)cc4)n2)[Si](C(C)C)(C(C)C)OC3)cn1 | range 1
COCCOC(=O)N1C(=O)[C@@]2(c3cc(C#CCC(C(=O)OC)C(=O)OC)ccc31)[C@H](c1ccccc1OCCO)N1[C@H](c3ccccc3)[C@H](c3ccccc3)OC(=O)[C@H]1[C@@H]2C(=O)N1CCN(c2ncccn2)CC1 | range 1
C=C(/C(=C/C[C@H](OC(C)=O)c1ccc(CO)o1)c1cc(C(=O)OC)ccc1OC)C(C)C | range 3
[N-]=[N+]=Nc1ccccc1[C@H]1OC(c2ccc(OCCCO)cc2)=N[C@@]1(CCS(=O)(=O)c1ccccc1)C(N)=O | range 3
CCOC(=O)C[C@H]1[C@H](OC(=O)c2ccc(C(=O)c3ccccc3)cc2)[C@@H](NC(=O)c2ccc3ccccc3c2)c2cc(OCCCO)ccc2N1C(=O)Cc1ccc(OC)cc1 | range 1
COCCCNC(=O)[C@]1(CCC(=O)OC(C)(C)C)N=C(c2ccc(OCCCO)cc2)O[C@@H]1c1ccccc1CN=[N+]=[N-] | range 1
COC(=O)C[C@H]1O[C@]2(C(=O)N(C)c3ccccc32)[C@@H](C)[C@@H]1[Si](C)(C)F | range 3
CCCC[C@@H]1C[C@H]1[C@@H](NC(=O)c1ccco1)c1ccccc1C(F)(F)F | range 3
CC(C)C(CO)N1C(=O)[C@@H]2C3C(=O)OCCC/C=C\[C@H]3OC23C=CCN(CCN2CCOCC2)C(=O)[C@@H]13 (stereo not given in full) | range 1
O=C(NCCO)C1=C[C@H](Oc2ccccc2I)[C@@H](O)[C@H](N(Cc2ccco2)C(=O)Cc2ccccc2)C1 | range 1
C[C@@]1([C@@H](NC(=O)c2ccc(-c3ccccc3)cc2)c2ccc(Cl)cc2)C[C@H]1C1CCCCC1 | range 3
COCC(=C=CC[C@@H](O)c1cccc(OCCO)c1)C[C@@H](O)c1ccccn1 | range 2
CCCC[C@@H]1C[C@H]1[C@@H](NC(=O)c1ccco1)c1ccc(-c2ccccc2)cc1 | range 3
COC(=O)[C@@]1(Cc2ccc(OC)cc2)[C@H]2c3cc(C(=O)N4CCCC4)n(Cc4ccc(C)c(F)c4F)c3C[C@H]2CN1C(=O)c1ccccc1 | range 1

Origin of measurements: PubChem BioAssay
